Reference source: the supplement of paper PMC10307832

- Test system: CAL-12T
- protocolDescription: relative viability (nuclei count vs DMSO), 5 days (fraction); higher = more cells survive
- studyConditions: first compound 0.6325 µM
measuredMetric: relative viability

# compound, measuredMetric, recordedResult
records = [
    ("CN1CCN(CCOc2cc(OC3CCOCC3)c3c(Nc4c(Cl)ccc5c4OCO5)ncnc3c2)CC1 [Saracatinib] + CC(=O)Nc1cccc(-n2c(=O)n(C3CC3)c(=O)c3c(Nc4ccc(I)cc4F)n(C)c(=O)c(C)c32)c1 [Trametinib] (partner 0.02 µM)", "relative viability", 0.475),
    ("CN1CCN(CCOc2cc(OC3CCOCC3)c3c(Nc4c(Cl)ccc5c4OCO5)ncnc3c2)CC1 [Saracatinib] + Cc1nc(NC(=O)N2CCC[C@H]2C(N)=O)sc1-c1ccnc(C(C)(C)C(F)(F)F)c1 [Alpelisib] (partner 2 µM)", "relative viability", 1.33),
    ("CN1CCN(CCOc2cc(OC3CCOCC3)c3c(Nc4c(Cl)ccc5c4OCO5)ncnc3c2)CC1 [Saracatinib] + O=C(CCCCCCC(=O)Nc1ccccc1)NO [Vorinostat] (partner 1 µM)", "relative viability", 0.91),
]

----------
- System: NCI-H23
- protocolDescription: relative viability (nuclei count vs DMSO), 5 days (fraction); higher = more cells survive
- studyConditions: first compound 0.006325 µM
Collected relative viability values appear next to each entry.
measuredMetric: relative viability

# compound, recordedResult
records = [
    ("CCNC(=O)c1noc(-c2cc(C(C)C)c(O)cc2O)c1-c1ccc(CN2CCOCC2)cc1 [Luminespib] + Nc1ncn([C@H]2C[C@H](O)[C@@H](CO)O2)c(=O)n1 [Decitabine] (partner 2 µM)", 0.346),
    ("CCNC(=O)c1noc(-c2cc(C(C)C)c(O)cc2O)c1-c1ccc(CN2CCOCC2)cc1 [Luminespib] + CC(C)C[C@H](NC(=O)[C@H](Cc1ccccc1)NC(=O)c1cnccn1)B(O)O [Bortezomib] (partner 0.002 µM)", 1.05),
    ("CCNC(=O)c1noc(-c2cc(C(C)C)c(O)cc2O)c1-c1ccc(CN2CCOCC2)cc1 [Luminespib] + CC(=O)Nc1cccc(-n2c(=O)n(C3CC3)c(=O)c3c(Nc4ccc(I)cc4F)n(C)c(=O)c(C)c32)c1 [Trametinib] (partner 0.02 µM)", 0.424),
]

----------
Collected relative viability values appear next to each entry.
- Tested on: CAL-12T
- protocolDescription: relative viability (nuclei count vs DMSO), 5 days (fraction); higher = more cells survive
- studyConditions: first compound 8 µM
measuredMetric: relative viability

# molecule, measuredMetric, recordedResult
records = [
    ("Nc1cccc2c1CN(C1CCC(=O)NC1=O)C2=O (configuration not stated) [Lenalidomide] + CC(=O)Nc1cccc(-n2c(=O)n(C3CC3)c(=O)c3c(Nc4ccc(I)cc4F)n(C)c(=O)c(C)c32)c1 [Trametinib] (partner 0.02 µM)", "relative viability", 0.306),
    ("Nc1cccc2c1CN(C1CCC(=O)NC1=O)C2=O (configuration not stated) [Lenalidomide] + O=C(CCCCCCC(=O)Nc1ccccc1)NO [Vorinostat] (partner 1 µM)", "relative viability", 0.907),
    ("Nc1cccc2c1CN(C1CCC(=O)NC1=O)C2=O (configuration not stated) [Lenalidomide] + C[C@@H](Oc1cc(-c2cnn(C3CCNCC3)c2)cnc1N)c1c(Cl)ccc(F)c1Cl [Crizotinib] (partner 1 µM)", "relative viability", 0.857),
    ("Nc1cccc2c1CN(C1CCC(=O)NC1=O)C2=O (configuration not stated) [Lenalidomide] + CS(=O)(=O)N1CCN(Cc2cc3nc(-c4cccc5[nH]ncc45)nc(N4CCOCC4)c3s2)CC1 [Pictilisib] (partner 1 µM)", "relative viability", 0.358),
    ("Nc1cccc2c1CN(C1CCC(=O)NC1=O)C2=O (configuration not stated) [Lenalidomide] + NC(=O)Nc1cc(-c2cccc(F)c2)sc1C(=O)N[C@H]1CCCNC1 [AZD7762] (partner 0.2 µM)", "relative viability", 0.666),
    ("Nc1cccc2c1CN(C1CCC(=O)NC1=O)C2=O (configuration not stated) [Lenalidomide] + Cc1nc(NC(=O)N2CCC[C@H]2C(N)=O)sc1-c1ccnc(C(C)(C)C(F)(F)F)c1 [Alpelisib] (partner 2 µM)", "relative viability", 1.36),
    ("Nc1cccc2c1CN(C1CCC(=O)NC1=O)C2=O (configuration not stated) [Lenalidomide] + CC(=O)c1c(C)c2cnc(Nc3ccc(N4CCNCC4)cn3)nc2n(C2CCCC2)c1=O [Palbociclib] (partner 0.5 µM)", "relative viability", 0.472),
]

----------
- Tested on: HCC-44
- protocolDescription: relative viability (nuclei count vs DMSO), 5 days (fraction); higher = more cells survive
- studyConditions: first compound 0.001 µM
measuredMetric: relative viability

# compound, measuredMetric, recordedResult
rows = [
    ("Cc1cn(-c2cc(NC(=O)c3ccc(C)c(Nc4nccc(-c5cccnc5)n4)c3)cc(C(F)(F)F)c2)cn1 [Nilotinib] + Nc1ncn([C@H]2C[C@H](O)[C@@H](CO)O2)c(=O)n1 [Decitabine] (partner 2 µM)", "relative viability", 0.922),
    ("Cc1cn(-c2cc(NC(=O)c3ccc(C)c(Nc4nccc(-c5cccnc5)n4)c3)cc(C(F)(F)F)c2)cn1 [Nilotinib] + CC(=O)Nc1cccc(-n2c(=O)n(C3CC3)c(=O)c3c(Nc4ccc(I)cc4F)n(C)c(=O)c(C)c32)c1 [Trametinib] (partner 0.02 µM)", "relative viability", 0.951),
    ("Cc1cn(-c2cc(NC(=O)c3ccc(C)c(Nc4nccc(-c5cccnc5)n4)c3)cc(C(F)(F)F)c2)cn1 [Nilotinib] + NC(=O)Nc1cc(-c2cccc(F)c2)sc1C(=O)N[C@H]1CCCNC1 [AZD7762] (partner 0.2 µM)", "relative viability", 0.969),
    ("Cc1cn(-c2cc(NC(=O)c3ccc(C)c(Nc4nccc(-c5cccnc5)n4)c3)cc(C(F)(F)F)c2)cn1 [Nilotinib] + CCNC(=O)c1noc(-c2cc(C(C)C)c(O)cc2O)c1-c1ccc(CN2CCOCC2)cc1 [Luminespib] (partner 0.01 µM)", "relative viability", 0.845),
]

----------
- Test system: NCI-H1437
- protocolDescription: relative viability (nuclei count vs DMSO), 5 days (fraction); higher = more cells survive
- studyConditions: first compound 0.2 µM
Collected relative viability values appear next to each entry.
measuredMetric: relative viability

# compound, studySystem, recordedResult
rows = [
    ("CN1CCN(CCOc2cc(OC3CCOCC3)c3c(Nc4c(Cl)ccc5c4OCO5)ncnc3c2)CC1 [Saracatinib] + CCNC(=O)c1noc(-c2cc(C(C)C)c(O)cc2O)c1-c1ccc(CN2CCOCC2)cc1 [Luminespib] (partner 0.01 µM)", "NCI-H1437", 1.13),
    ("CCNC(=O)c1noc(-c2cc(C(C)C)c(O)cc2O)c1-c1ccc(CN2CCOCC2)cc1 [Luminespib] + C[C@]1(O)C[C@@H](c2nc(-c3ccc4ccc(-c5ccccc5)nc4c3)c3c(N)nccn32)C1 [Linsitinib] (partner 1 µM)", "NCI-H1437", 0.0998),
    ("CN1CCN(CCOc2cc(OC3CCOCC3)c3c(Nc4c(Cl)ccc5c4OCO5)ncnc3c2)CC1 [Saracatinib] + Cc1nc(NC(=O)N2CCC[C@H]2C(N)=O)sc1-c1ccnc(C(C)(C)C(F)(F)F)c1 [Alpelisib] (partner 2 µM)", "NCI-H1437", 0.894),
    ("Cc1csc(=NC2CCCCC2)n1/N=C/c1ccc(O)c(O)c1O [MIM1] + N=C(N)NC(=N)NCCc1ccccc1 [Phenformin] (partner 250 µM)", "NCI-H1437", 0.256),
    ("CCNC(=O)c1noc(-c2cc(C(C)C)c(O)cc2O)c1-c1ccc(CN2CCOCC2)cc1 [Luminespib] + Cc1nc(Nc2ncc(C(=O)Nc3c(C)cccc3Cl)s2)cc(N2CCN(CCO)CC2)n1 [Dasatinib] (partner 0.075 µM)", "NCI-H1437", 0.126),
]

----------
- Tested on: SK-MES-1
- protocolDescription: relative viability (nuclei count vs DMSO), 5 days (fraction); higher = more cells survive
- studyConditions: first compound 20 µM

# compound, relative viability
measured = [
    ("Cc1csc(=NC2CCCCC2)n1/N=C/c1ccc(O)c(O)c1O [MIM1] + CS(=O)(=O)CCNCc1ccc(-c2ccc3ncnc(Nc4ccc(OCc5cccc(F)c5)c(Cl)c4)c3c2)o1 [Lapatinib] (partner 2 µM)", 0.617),
    ("Cc1csc(=NC2CCCCC2)n1/N=C/c1ccc(O)c(O)c1O [MIM1] + O=C(c1cc(Cc2n[nH]c(=O)c3ccccc23)ccc1F)N1CCN(C(=O)C2CC2)CC1 [Olaparib] (partner 8 µM)", 0.108),
    ("Cc1csc(=NC2CCCCC2)n1/N=C/c1ccc(O)c(O)c1O [MIM1] + Nc1ncn([C@H]2C[C@H](O)[C@@H](CO)O2)c(=O)n1 [Decitabine] (partner 2 µM)", 0.21),
    ("Cc1csc(=NC2CCCCC2)n1/N=C/c1ccc(O)c(O)c1O [MIM1] + COc1cc2c(Oc3ccc(NC(=O)C4(C(=O)Nc5ccc(F)cc5)CC4)cc3F)ccnc2cc1OCCCN1CCOCC1 [Foretinib] (partner 0.25 µM)", 0.758),
    ("Cc1csc(=NC2CCCCC2)n1/N=C/c1ccc(O)c(O)c1O [MIM1] + O=C(CCCCCCC(=O)Nc1ccccc1)NO [Vorinostat] (partner 1 µM)", 0.2),
    ("Cc1csc(=NC2CCCCC2)n1/N=C/c1ccc(O)c(O)c1O [MIM1] + N=C(N)NC(=N)NCCc1ccccc1 [Phenformin] (partner 250 µM)", 0.41),
]
